The origin of these recorded values is patent US11826429B2.

assay.info: Solubility studies (supernatant filtered through 0.45 syringe filter and analysed)
Type: physicochemical
test.conditions: purified water, pH adjusted to 6, aqueous buffer, thermodynamic from solid; pH 6.0; not autoclaved; stirred 24 hours; read-out: Solubility determined in the lab
measure: solubility thermodynamic at 24 h (µg/mL)
Give bare numbers, in µg/mL.

Lookup: Look up and report measured solubility thermodynamic at 24 h for this entry: CCN[C@H]1CN(CCCOC)S(=O)(=O)c2sc(S(N)(=O)=O)cc21 [brinzolamide]
Found: 545
